Entry source: patent US20210380703A1

Kindly state optical density for each of the entries shown.
molecular target: T1, Goat anti-Human Kappa; test: ELISA; positive control; further: test concentration or dose not given here
T1 construct: Positive control; also called biotinylated goat anti-human kappa light chain
State just the number; it will be interpreted in OD.

Read the entry 371_G01 (antibody, V domains shown, VH/VL only) VH: EVQLLESGGGLVQPGGSLRLSCAASGFTFSDYSMNWVRQAPGKGLEWVSNINYNGGYTSYADSVKGRFTISRDNSKNTLYLQMNSLRAEDTAVYYCARGATWHDTHLDYWGQGTLVTVSS VL: DIQMTQSPSSLSASVGDRVTITCRASQSILTYLNWYQQKPGKAPKLLIYAATSLASGVPSRFSGSGSGTDFTLTISSLQPEDFATYYCQQSYDLPLTFGGGTKVEIK and write its reported optical density.
1.79

Read the entry 365_E01 (antibody, V domains shown, VH/VL only) VH: EVQLLESGGGLVQPGGSLRLSCAASGFTFSDYSMNWVRQAPGKGLEWVSGINYNSGYKGYADSVKGRFTISRDNSKNTLYLQMNSLRAEDTAVYYCARSANWHDTALDYWGQGTLVTVSS VL: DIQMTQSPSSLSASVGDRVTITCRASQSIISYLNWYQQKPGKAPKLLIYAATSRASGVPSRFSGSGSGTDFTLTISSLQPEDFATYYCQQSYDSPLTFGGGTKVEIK and write its reported optical density.
3.54

Read the entry 367_E07 (antibody, V domains shown, VH/VL only) VH: EVQLLESGGGLVQPGGSLRLSCAASGFTFSDYSMNWVRQAPGKGLEWVSSINYNGGYKGYADSVKGRFTISRDNSKNTLYLQMNSLRAEDTAVYYCARGATWHDTHLDYWGQGTLVTVSS VL: DIQMTQSPSSLSASVGDRVTITCRASQSILSYVNWYQQKPGKAPKLVIYAATSRASGVPSRFSGSGSGTDFTLTISSLQPEDFATYYCQQSYENPLTFGGGTKVEIK and write its reported optical density.
3.21

Read the entry 367_C08 (antibody, V domains shown, VH/VL only) VH: EVQLLESGGGLVQPGGSLRLSCAASGFTFDSYSMHWVRQAPGKGLEWVAGINYNGGYTSYADSVKGRFTISRDNSKNTLYLQMNSLRAEDTAVYYCARGATWHDTHLDYWGQGTLVTVSS VL: DIQMTQSPSSLSASVGDRVTITCRASQSILTYLNWYQQKPGKAPKLLIYAATSLASGVPSRFSGSGSGTDFTLTISSLQPEDFATYYCQQSDSNPLTFGGGTKVEIK and write its reported optical density.
3.05

Read the entry 365_H11 (antibody, V domains shown, VH/VL only) VH: EVQLLESGGGLVQPGGSLRLSCAASGFTFSSYSMNWVRQAPGKGLEWVSGINYNSGYTGYADSVKGRFTISRDNSKNTLYLQMNSLRAEDTAVYYCARSANWHDTALDYWGQGTLVTVSS VL: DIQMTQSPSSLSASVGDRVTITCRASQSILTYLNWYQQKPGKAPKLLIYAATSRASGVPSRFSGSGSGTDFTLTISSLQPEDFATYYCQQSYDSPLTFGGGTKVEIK and write its reported optical density.
3.61

Read the entry 371_E12 (antibody, V domains shown, VH/VL only) VH: EVQLLESGGGLVQPGGSLRLSCAASGFTFDSYSMNWVRQAPGKGLEWVSGINYNSGYKSYADSVKGRFTISRDNSKNTLYLQMNSLRAEDTAVYYCARGATWHDTHLDYWGQGTLVTVSS VL: DIQMTQSPSSLSASVGDRVTITCRASQSILSYLNWYQQKPGKAPKLLIYAATSLASGVPSRFSGSGSGTDFTLTISSLQPEDFATYYCQQSYDTPLTFGGGTKVEIK and write its reported optical density.
3.62

Read the entry 365_D12 (antibody, V domains shown, VH/VL only) VH: EVQLLESGGGLVQPGGSLRLSCAASGFTFDSYGMNWVRQAPGKGLEWVSNINYNGGYTGYADSVKGRFTISRDNSKNTLYLQMNSLRAEDTAVYYCARSANWHDTALDYWGQGTLVTVSS VL: DIQMTQSPSSLSASVGDRVTITCRASQSIVTYLNWYQQKPGKAPKLVIYAATSRASGVPSRFSGSGSGTDFTLTISSLQPEDFATYYCQQSYDTPLTFGGGTKVEIK and write its reported optical density.
3.53

Read the entry 376_F06 (antibody, V domains shown, VH/VL only) VH: EVQLLESGGGLVQPGGSLRLSCAASGFTFSSYGMNWVRQAPGKGLEWVSGINYNGGYTGYADSVKGRFTISRDNSKNTLYLQMNSLRAEDTAVYYCARGANWHDTHLDYWGQGTLVTVSS VL: DIQMTQSPSSLSASVGDRVTITCRASQSILTYVNWYQQKPGKAPKLVIYAATSRASGVPSRFSGSGSGTDFTLTISSLQPEDFATYYCQQSYETPLTFGGGTKVEIK and write its reported optical density.
3.47

Read the entry 365_F01 (antibody, V domains shown, VH/VL only) VH: EVQLLESGGGLVQPGGSLRLSCAASGFTFDSYSMNWVRQAPGKGLEWVSGINYNSGYKGYADSVKGRFTISRDNSKNTLYLQMNSLRAEDTAVYYCARSANWHDTHLDYWGQGTLVTVSS VL: DIQMTQSPSSLSASVGDRVTITCRASQSIVSYLNWYQQKPGKAPKLVIYAATSLASGVPSRFSGSGSGTDFTLTISSLQPEDFATYYCQQSYELPLTFGGGTKVEIK and write its reported optical density.
3.51

Read the entry 365_H10 (antibody, V domains shown, VH/VL only) VH: EVQLLESGGGLVQPGGSLRLSCAASGFTFDSYGMNWVRQAPGKGLEWVAGINYNSGYKSYADSVKGRFTISRDNSKNTLYLQMNSLRAEDTAVYYCARSANWHDTHLDYWGQGTLVTVSS VL: DIQMTQSPSSLSASVGDRVTITCRASQSIVTYVNWYQQKPGKAPKLVIYAATSLASGVPSRFSGSGSGTDFTLTISSLQPEDFATYYCQQSYNTPLTFGGGTKVEIK and write its reported optical density.
3.51
